# test-name: Pharmacokinetics, single oral gavage, CD-1 mice
# Assay type: in vivo, female CD-1 mice
# condition-parameters: female, CD-1, mouse, plasma, 450 mg/kg, 120 min, n = 2, read-out: Average Concentration of HGT3711
attribute-measured: concentration at 120 min
Report the figure along with its unit, number first.

Which concentration at 120 min value belongs to Cc1cc(Cl)c(COc2cccc3c(-n4cc(F)cn4)cc(C)nc23)c(Cn2cccc(C#N)c2=O)n1 [CFMQ] ?
6440 ng/mL

---

# test-name: Plasma kinetics, intravenous, beagle dogs
# Format: in vivo, female beagle dogs
# condition-parameters: female, beagle, dog, plasma; IV 1 mg/kg, 0 hr; read-out: Average Concentration of HGT3711
attribute-measured: concentration at 0 hr (ng/mL)
Give the value in ng/mL but do not write ng/mL after it.

Which concentration at 0 hr value belongs to Cc1cc(Cl)c(COc2cccc3c(-n4cc(F)cn4)cc(C)nc23)c(Cn2cccc(C#N)c2=O)n1 [CFMQ] ?
0
